Items are presented alongside their recorded IC50.
molecular target: recombinant full-length WRN protein (1-1432) (Homo sapiens, UniProt Q14191); construct: recombinant full-length WRN protein (1-1432); experiment: WRN unwinding activity, fluorogenic 384-well assay (Example A); type: biochemical; conditions: WRN unwinding activity, 4 hr; Table 2; read-out: 4 hr UNW pIC50 (converted)
Sequence (Q14191 whole entry): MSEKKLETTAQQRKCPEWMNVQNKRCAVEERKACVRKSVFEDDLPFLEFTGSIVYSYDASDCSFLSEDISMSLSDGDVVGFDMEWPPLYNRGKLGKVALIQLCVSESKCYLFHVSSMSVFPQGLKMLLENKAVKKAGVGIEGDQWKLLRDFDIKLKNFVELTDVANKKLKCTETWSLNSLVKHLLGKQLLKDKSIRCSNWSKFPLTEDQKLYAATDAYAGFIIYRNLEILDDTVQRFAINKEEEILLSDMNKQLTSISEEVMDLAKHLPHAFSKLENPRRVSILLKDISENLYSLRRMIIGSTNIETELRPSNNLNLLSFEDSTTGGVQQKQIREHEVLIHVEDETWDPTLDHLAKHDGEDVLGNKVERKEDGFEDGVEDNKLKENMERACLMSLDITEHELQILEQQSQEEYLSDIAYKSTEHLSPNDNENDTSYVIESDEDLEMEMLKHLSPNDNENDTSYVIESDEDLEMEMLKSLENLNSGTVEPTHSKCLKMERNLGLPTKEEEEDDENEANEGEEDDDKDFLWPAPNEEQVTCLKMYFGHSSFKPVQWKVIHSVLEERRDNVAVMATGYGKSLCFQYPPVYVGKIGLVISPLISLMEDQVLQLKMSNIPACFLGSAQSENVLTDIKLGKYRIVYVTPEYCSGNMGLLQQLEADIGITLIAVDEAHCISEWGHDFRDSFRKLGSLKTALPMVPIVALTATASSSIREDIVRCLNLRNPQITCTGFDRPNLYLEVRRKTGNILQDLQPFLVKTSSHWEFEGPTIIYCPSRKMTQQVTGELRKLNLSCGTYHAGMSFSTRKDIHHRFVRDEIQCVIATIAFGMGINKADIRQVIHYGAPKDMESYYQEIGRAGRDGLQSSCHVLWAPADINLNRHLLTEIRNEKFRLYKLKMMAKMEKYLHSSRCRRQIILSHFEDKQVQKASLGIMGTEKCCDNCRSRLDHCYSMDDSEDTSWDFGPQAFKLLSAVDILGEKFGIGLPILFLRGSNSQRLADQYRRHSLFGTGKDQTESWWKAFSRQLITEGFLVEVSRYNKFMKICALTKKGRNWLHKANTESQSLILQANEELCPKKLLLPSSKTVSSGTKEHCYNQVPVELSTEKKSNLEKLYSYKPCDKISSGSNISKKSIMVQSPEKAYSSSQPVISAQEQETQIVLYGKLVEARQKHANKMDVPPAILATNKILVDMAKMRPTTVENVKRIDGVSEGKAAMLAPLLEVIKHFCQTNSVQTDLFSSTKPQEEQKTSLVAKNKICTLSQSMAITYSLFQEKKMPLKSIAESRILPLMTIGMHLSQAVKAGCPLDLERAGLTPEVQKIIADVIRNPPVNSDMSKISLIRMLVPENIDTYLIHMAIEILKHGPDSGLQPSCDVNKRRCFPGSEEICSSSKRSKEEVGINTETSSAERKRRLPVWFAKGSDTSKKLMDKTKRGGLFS
Entry format: amount then unit.

Quick note, IC50 for Cc1nc2cc(S(=O)(=O)N(C)c3ccc([C@H]4C[C@H]5COC[C@H]5[C@@H](C(=O)Nc5ccc(C(F)(F)F)cc5F)[C@@H]4C(=O)O)cc3)ccc2n1C (stereo in doubt) landed at 1.58 nM

---

target: recombinant full-length WRN protein (1-1432) (Homo sapiens, UniProt Q14191); construct: recombinant full-length WRN protein (1-1432); assay: WRN unwinding activity, fluorogenic 384-well assay (Example A); format: biochemical; conditions: WRN unwinding activity, 4 hr; Table 2; read-out: 4 hr UNW pIC50 (converted)
readout_type: IC50 (nM)
Form entry: value (nM) — number only.

compound	readout_type	measured_number
CCCO[C@@H]1C[C@H](C(=O)Nc2ccc(C(F)(F)F)cc2F)[C@@H](C(=O)O)[C@H](c2ccc(N(C)S(=O)(=O)c3ccc4c(c3)nc(C)n4C)cc2)C1 (stereo in doubt)	IC50	3980
O=C(O)[C@@H]1[C@@H](c2ccc(C3=COCCC3)cc2)CCC[C@H]1C(=O)Nc1ccc(C(F)(F)F)cc1F	IC50	1.58

Lab note: next compound to report on.
Quick note, IC50 for `Cc1nc2cc(S(=O)(=O)N(C)c3ccc([C@H]4CCC[C@@H](C(=O)Nc5ccc(C(F)(F)F)cc5F)[C@@H]4C(=O)O)cc3)c(F)cc2n1C` landed at 3.98

---

target: recombinant full-length WRN protein (1-1432) (Homo sapiens, UniProt Q14191); construct: recombinant full-length WRN protein (1-1432); test: WRN unwinding activity, fluorogenic 384-well assay (Example A); type: biochemical; details: WRN unwinding activity, 4 hr; Table 2; read-out: 4 hr UNW pIC50 (converted)
readout_type: IC50
Entry format: amount then unit.

compound	IC50
Cc1nc2cc(S(=O)(=O)N(C)c3ccc([C@@H]4C[C@H]5COC[C@H]5[C@H](C(=O)Nc5ccc(C(F)(F)F)cc5F)[C@H]4C(=O)O)cc3)ccc2n1C (stereo in doubt)	0.501 µM
O=C(O)[C@@H]1[C@@H](c2ccc(-c3cnn4c3CCC4)cc2)CCC[C@H]1C(=O)Nc1ccc(C(F)(F)F)cc1F	0.02 µM
CCO[C@@H]1C[C@H](C(=O)Nc2ccc(C(F)(F)F)cn2)[C@@H](C(=O)O)[C@H](c2ccc(N(C)S(=O)(=O)c3ccc4c(c3)nc(C)n4C)cc2)C1 (relative stereo)	0.126 µM
Cc1nc2cc(S(=O)(=O)N(C)c3ccc([C@H]4C[C@@H](O)C[C@@H](C(=O)Nc5ccc(C(F)(F)F)cc5F)[C@@H]4C(=O)O)cc3)ccc2n1C (single isomer, unassigned) [Example 145]	0.00158 µM

Quick note, IC50 for O=C(O)[C@@H]1[C@@H](c2ccc(C(F)(F)F)cc2)CCC[C@H]1C(=O)Nc1ccc(C(F)(F)F)cc1F (racemic) landed at 0.0794 µM

---

Items are presented alongside their recorded IC50.
target: recombinant full-length WRN protein (1-1432) (Homo sapiens); construct: recombinant full-length WRN protein (1-1432); assay: WRN unwinding activity, fluorogenic 384-well assay (Example A); assay type: biochemical; settings: WRN unwinding activity, 4 hr; Table 2; read-out: 4 hr UNW pIC50 (converted)
Form entry: value (nM) — number only.

compound	units_label	IC50
CC(C)c1nc2cc(S(=O)(=O)N(C)c3ccc([C@H]4CCC[C@@H](C(=O)Nc5ccc(C(F)(F)F)cc5F)[C@@H]4C(=O)O)cc3)ccc2n1C	nM	12.6

Quick note, IC50 for Cc1nc2cc(S(=O)(=O)N(C)c3ccc([C@H]4C[C@H](N5CCCCC5)C[C@@H](C(=O)Nc5ccc(C(F)(F)F)cc5F)[C@@H]4C(=O)O)cc3)ccc2n1C (relative stereo) landed at 251

Quick note, IC50 for `CCC[C@H]1CC[C@@H](NC(=O)[C@@H]2CCC[C@H](c3ccc(N(C)S(=O)(=O)c4ccc5c(c4)nc(C)n5C)cc3)[C@H]2C(=O)O)CC1` landed at 20

---

tested on: SW48 human colorectal cancer cells (MSI-H cancer cells); assay: SW48 cell viability, CellTiter-Glo, 120 hours (Example B); details: Homo sapiens, SW48, 120 h, read-out: SW48 pCC50, SW48 cell viability, 120 hours incubation (converted); Table 2
Counter-ions that a name gives are not always drawn.
Items are presented alongside their recorded CC50.
Form entry: value (µM) — number only.

compound	measured_number
Cc1nc2cc(S(=O)(=O)N(C)c3ccc([C@H]4CCC[C@@H](C(=O)N[C@H]5CC[C@H](C6CCC6)CC5)[C@@H]4C(=O)O)cc3)ccc2n1C [Example 188]	2.51
Cc1nc2cc(S(=O)(=O)N(C)c3ccc([C@H]4CCC[C@@H](C(=O)NC56CC(C7CCCC7)(C5)C6)[C@@H]4C(=O)O)cc3)ccc2n1C [Example 187, formic acid salt]	3.98

Quick note, CC50 for Cc1nc2cc(S(=O)(=O)N(C)c3ccc([C@H]4CCC[C@@H](C(=O)Nc5ccc(C(F)(F)F)cc5F)[C@@H]4C(=O)O)cc3F)ccc2n1C (single isomer, unassigned) [Example 368] landed at 0.794

Quick note, CC50 for CN(c1ccc([C@H]2CCC[C@@H](C(=O)Nc3ccc(C(F)(F)F)cc3F)[C@@H]2C(=O)O)cc1)S(=O)(=O)c1ccc2scnc2c1 [Example 101] landed at 1.26

Quick note, CC50 for Cc1nc2cc(S(=O)(=O)N(C)c3ccc([C@H]4C[C@@H](OCC5COC5)C[C@@H](C(=O)Nc5ccc(C(F)(F)F)cc5F)[C@@H]4C(=O)O)cc3)ccc2n1C (relative stereo) [Example 282] landed at 0.0631

---

biological target: recombinant full-length WRN protein (1-1432) (Homo sapiens); construct: recombinant full-length WRN protein (1-1432); assay: WRN unwinding activity, fluorogenic 384-well assay (Example A); assay type: biochemical; conditions: WRN unwinding activity, 4 hr; Table 2; read-out: 4 hr UNW pIC50 (converted)
# note: boundary value 5 nM maps to n; IC50 below it maps to y

Look over these answered cases.
molecule	qualitative_label
Cc1cc(C)c(S(=O)(=O)N(C)c2ccc([C@H]3CCC[C@@H](C(=O)Nc4ccc(C(F)(F)F)cc4F)[C@@H]3C(=O)O)cc2)c(C)c1	y
Cc1nc2cc(S(=O)(=O)N(C)c3ccc([C@H]4CCC[C@H](C(=O)Nc5ccc(C(C)C)cc5)[C@@H]4C(=O)O)cc3)ccc2n1C (single isomer, unassigned) [Example 73]	y
O=C(O)[C@@H]1[C@@H](c2ccc(-c3cccc(COC4CCOCC4)c3)cc2)CCC[C@H]1C(=O)Nc1ccc(C(F)(F)F)cc1F	n
O=C(O)[C@@H]1[C@@H](c2ccc(-c3cccc4cnccc34)cc2)CCC[C@H]1C(=O)Nc1ccc(C(F)(F)F)cc1F	n
CCO[C@@H]1C[C@H](C(=O)Nc2ccc(C(F)(F)F)cc2F)[C@@H](C(=O)O)[C@H](c2ccc(N(C)S(=O)(=O)c3ccc4c(c3)nc(C)n4C)cc2)C1 (single isomer, unassigned)	n

Query: Check if IC50 falls below 5 nM for `O=C(O)[C@@H]1[C@@H](c2ccc(-c3csnc3CO)cc2)CCC[C@H]1C(=O)Nc1ccc(C(F)(F)F)cc1F` .
Response: n

Query: Check if IC50 falls below 5 nM for `Cc1nc2ccc(S(=O)(=O)N(C)c3ccc([C@H]4CCC[C@@H](C(=O)Nc5ccc(C(F)(F)F)cc5F)[C@@H]4C(=O)O)cc3)cc2n1C` .
Response: n

Query: Check if IC50 falls below 5 nM for CC(=O)N(C)[C@@H]1C[C@H](C(=O)Nc2ccc(C(F)(F)F)cc2F)[C@@H](C(=O)O)[C@H](c2ccc(N(C)S(=O)(=O)c3ccc4c(c3)nc(C)n4C)cc2)C1 (stereo in doubt) .
Response: n

Query: Check if IC50 falls below 5 nM for `CN(c1ccc([C@H]2CCC[C@@H](C(=O)Nc3ccc(C(F)(F)F)cc3F)[C@@H]2C(=O)O)cc1)S(=O)(=O)c1ccc(O)c(C=O)c1` .
Response: y

Query: Check if IC50 falls below 5 nM for `O=C(O)[C@@H]1[C@@H](c2ccc(-c3cccnn3)cc2)CCC[C@H]1C(=O)Nc1ccc(C(F)(F)F)cc1F` .
Response: y

---

target: recombinant full-length WRN protein (1-1432) (Homo sapiens); construct: recombinant full-length WRN protein (1-1432); assay: WRN unwinding activity, fluorogenic 384-well assay (Example A); format: biochemical; conditions: WRN unwinding activity, 4 hr; Table 2; read-out: 4 hr UNW pIC50 (converted)
Category | rule: reported IC50 within range, see bottom end (below 5 nM), midrange (5 nM to below 200 nM), top end (200 nM or more)

Look over these answered cases.
molecule	qualitative_label
O=C(O)[C@@H]1[C@@H](c2ccc(C3CC3)cc2)CCC[C@H]1C(=O)Nc1ccc(C(F)(F)F)cc1F	top end
Cc1nc2cc(S(=O)(=O)Nc3ccc([C@H]4CCC[C@@H](C(=O)Nc5ccc(C(F)(F)F)cc5F)[C@@H]4C(=O)O)cc3)ccc2n1C (single isomer, unassigned)	midrange
Cc1nc2cc(S(=O)(=O)N(C)c3ccc([C@H]4CNC[C@@H](C(=O)Nc5ccc(C(F)(F)F)cc5F)[C@@H]4C(=O)O)cc3)ccc2n1C (relative stereo)	bottom end

Query: Class for `O=C(O)[C@@H]1[C@@H](c2ccc(-c3cncc(F)c3)cc2)CCC[C@H]1C(=O)Nc1ccc(C(F)(F)F)cc1F` ?
Response: midrange

Query: Class for Cc1nc2cc(S(=O)(=O)N(C)c3ccc([C@H]4C[C@@H](N5CC6(F)CC5C6)C[C@@H](C(=O)Nc5ccc(C(F)(F)F)cc5F)[C@@H]4C(=O)O)cc3)ccc2n1C (relative stereo) ?
Response: midrange

Query: Class for CCO[C@@H]1CC[C@@H](C(=O)Nc2ccc(C(F)(F)F)cc2F)[C@H](C(=O)O)[C@H]1c1ccc(N(C)S(=O)(=O)c2ccc3c(c2)nc(C)n3C)cc1 (racemic) ?
Response: midrange

Query: Class for Cc1nc2cc(S(=O)(=O)N(C)c3ccc([C@@H]4CCC[C@H](COc5ccc(C(F)(F)F)cc5)[C@H]4C(=O)O)cc3)cc([C@H]3CCCN(C)C3)c2n1C (single isomer, unassigned) ?
Response: bottom end

Query: Class for `O=C(O)[C@@H]1[C@@H](c2ccc(-c3ccc(F)nc3)cc2)CCC[C@H]1C(=O)Nc1ccc(C(F)(F)F)cc1F` ?
Response: bottom end

Query: Class for Cc1nc2cc(S(=O)(=O)N(C)c3ccc([C@@H]4C[C@@H](N5CC6(F)CC5C6)C[C@H](C(=O)Nc5ccc(C(F)(F)F)cc5F)[C@H]4C(=O)O)cc3)ccc2n1C (relative stereo) ?
Response: top end

Query: Class for `O=C(O)[C@@H]1[C@@H](c2ccc(-c3cccc4sccc34)cc2)CCC[C@H]1C(=O)Nc1ccc(C(F)(F)F)cc1F` ?
Response: top end

Query: Class for Cc1nc2cc(S(=O)(=O)N(C)c3ccc([C@@H]4C[C@@H](N5CCOCC5)C[C@H](C(=O)Nc5ccc(C(F)(F)F)cc5F)[C@H]4C(=O)O)cc3)ccc2n1C (relative stereo) ?
Response: top end

Query: Class for CC(=O)N1CCc2cc(S(=O)(=O)N(C)c3ccc([C@H]4CCC[C@@H](C(=O)Nc5ccc(C(F)(F)F)cc5F)[C@@H]4C(=O)O)cc3)ccc21 (single isomer, unassigned) [Example 90] ?
Response: bottom end
